Target: TXA2 synthetase (Rattus norvegicus)
Construct: whole blood was collected from abdominal aorta
Sequence (P49430 1-533): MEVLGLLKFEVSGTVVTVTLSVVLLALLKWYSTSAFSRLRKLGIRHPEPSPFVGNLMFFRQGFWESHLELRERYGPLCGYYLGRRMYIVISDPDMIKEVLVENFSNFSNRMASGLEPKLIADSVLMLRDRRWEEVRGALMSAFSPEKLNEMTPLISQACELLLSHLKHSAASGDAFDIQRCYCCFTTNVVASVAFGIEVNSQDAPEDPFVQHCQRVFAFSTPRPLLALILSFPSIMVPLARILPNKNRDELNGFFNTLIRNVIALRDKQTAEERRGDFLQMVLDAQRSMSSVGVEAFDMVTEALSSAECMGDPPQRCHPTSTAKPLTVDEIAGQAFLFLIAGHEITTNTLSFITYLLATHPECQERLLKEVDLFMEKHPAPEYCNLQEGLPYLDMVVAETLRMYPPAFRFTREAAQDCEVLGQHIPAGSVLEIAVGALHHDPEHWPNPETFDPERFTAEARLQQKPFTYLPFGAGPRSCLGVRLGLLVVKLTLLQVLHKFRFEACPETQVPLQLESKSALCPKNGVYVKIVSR
Test: Inhibitory effect on TXA2 synthetase (TXB2 synthesis in A23187-stimulated heparinized whole blood)
Conditions: 37° C, Ca ionophore A23187 30 μM, TXB2 by EIA
parameter: IC50
Number first, unit second.

// query State the measured IC50 (TXA2 synthetase (Rattus norvegicus)) of C#Cc1ccc2nc(-n3ccnc3)nc(NCCOC)c2c1
// result 2400 nM

----------
Target: cGMP-PDE (Homo sapiens, UniProt O76074)
Assay: Inhibitory effect on cGMP-PDE
Conditions: PDE IC isolated from human platelets; 3H-cGMP substrate 0.2 mM; pH 8.0; DMSO 2.5%
Structures can show the parent of a compound that is named as a salt.
parameter: IC50

# count of solved cases: 2
compound: C#Cc1ccc2nc(-n3ccnc3)nc(NCCOC)c2c1
parameter: IC50
val: 46 nM
//
compound: C#Cc1ccc2nc(-n3ccnc3)nc(NCc3ccccc3)c2c1 [18(b), dihydrochloride]
parameter: IC50
val: 0.53 nM

// query Quote IC50 reported for CN(C)S(=O)(=O)c1ccc2nc(-n3ccnc3)nc(NCc3ccccc3)c2c1 [6(j), hydrochloride] please.
// result 135 nM

// query Return reported IC50. Input compound: c1ccc(CNc2nc(Cn3ccnc3)nc3ccccc23)cc1 [6(b), dihydrochloride]
// result 300 nM

// query Output measured IC50 for this item: C(=C\c1nc(NCc2ccccc2)c2ccccc2n1)/c1cccnc1
// result 200 nM

// query Fill in reported IC50 for this entry: CN(C)c1ccc(CNc2nc(-c3cccnc3)nc3ccccc23)cc1 [3(o), trihydrochloride]
// result 2400 nM
